Tested on: 439559-082-T-J2-PDC spheroid viability
Test name: Anticancer human tumor 439559-082-T-J2-PDC patient-derived colon adenocarcinoma cell line growth inhibition [POLQ]
Measurement context: second compound 0.1 µM; first compound 0.316 µM; stronger effect = lower value; spheroids with HUVEC and MSC
Metric: viability, T/C (%)
Report the value in % with no unit label.

Ask | Field request: viability, T/C | item: COc1cccc2c1C(=O)c1c(O)c3c(c(O)c1C2=O)CC(O)(C(=O)CO)CC3OC1CC(N)C(O)C(C)O1 (configuration not stated) + COC1C(OC(N)=O)C(O)C(Oc2ccc3c(O)c(NC(=O)c4ccc(O)c(CC=C(C)C)c4)c(=O)oc3c2C)OC1(C)C
Reply | 82.9

Ask | Can you handle CCc1cc2c(N3CCc4c(cc(Cn5ccnc5)cc4-c4cn(C)nc4C(F)(F)F)C3=O)ccnc2c(OC)n1 + COC1C(OC(N)=O)C(O)C(Oc2ccc3c(O)c(NC(=O)c4ccc(O)c(CC=C(C)C)c4)c(=O)oc3c2C)OC1(C)C next?
Reply | 96.1

====

System: 439559-082-T-J2-PDC spheroid viability
Test name: Anticancer human tumor 439559-082-T-J2-PDC cell line growth inhibition [POLQ];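 note: spheroids exposed to compounds for seven days before readout; 100% = DMSO vehicle control viability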
Measurement context: second compound 0.1 µM; first compound 3.16 µM; stronger effect = lower value; spheroids with HUVEC and MSC
Metric: viability, T/C (%)
Value expressed in %; do not type the unit.

Ask | // lookup viability, T/C for CC1COCCN1c1cc(-c2ccnn2C)c2ccnc(-c3ccn[nH]3)c2n1 (stereo unspecified) + Nc1ccc(C#CCN(C(=O)Cc2ncc(C(F)(F)F)cc2C(F)(F)F)c2ccc(F)cc2)nn1
Reply | 55.8

Ask | Follow-up item: COc1cccc2c1C(=O)c1c(O)c3c(c(O)c1C2=O)CC(O)(C(=O)CO)CC3OC1CC(N)C(O)C(C)O1 (stereo unspecified) + Cc1cccc(N(C)C(=O)C2C(O)CCN2c2nc(C)cc(C(F)(F)F)c2C#N)c1
Reply | 62.9

Ask | Cool, now CNCc1ccc(-c2[nH]c3cc(F)cc4c3c2CCNC4=O)cc1 + Cc1cccc(N(C)C(=O)C2C(O)CCN2c2nc(C)cc(C(F)(F)F)c2C#N)c1
Reply | 101

Ask | COc1cc2cc(C(=O)CCC(=O)O)sc2cc1OC + Cc1cccc(N(C)C(=O)C2C(O)CCN2c2nc(C)cc(C(F)(F)F)c2C#N)c1 , same question.
Reply | 91.7

Ask | Would you kindly repeat that for CCc1cc2c(N3CCc4c(cc(Cn5ccnc5)cc4-c4cn(C)nc4C(F)(F)F)C3=O)cc(C)nc2c(OC)n1 + COC1C(OC(N)=O)C(O)C(Oc2ccc3c(O)c(NC(=O)c4ccc(O)c(CC=C(C)C)c4)c(=O)oc3c2C)OC1(C)C ?
Reply | 92.7

Ask | Same lookup for CC1COCCN1c1cc(-c2ccnn2C)c2ccnc(-c3ccn[nH]3)c2n1 (stereo unspecified) + Cc1cccc(N(C)C(=O)C2C(O)CCN2c2nc(C)cc(C(F)(F)F)c2C#N)c1 , please.
Reply | 49.4

Ask | Try this compound too: C=CC(=O)N1CCN(c2nc(=O)n(-c3c(C)ccnc3C(C)C)c3nc(-c4c(O)cccc4F)c(F)cc23)C(C)C1 (stereo unspecified) + Cc1cccc(N(C)C(=O)C2C(O)CCN2c2nc(C)cc(C(F)(F)F)c2C#N)c1
Reply | 107

Ask | Would you mind doing Nc1ccn(C2OC(CO)C(O)C2(F)F)c(=O)n1 (stereo unspecified) + COC1C(OC(N)=O)C(O)C(Oc2ccc3c(O)c(NC(=O)c4ccc(O)c(CC=C(C)C)c4)c(=O)oc3c2C)OC1(C)C as well?
Reply | 33

Ask | And for CNCc1ccc(-c2[nH]c3cc(F)cc4c3c2CCNC4=O)cc1 + COC1C(OC(N)=O)C(O)C(Oc2ccc3c(O)c(NC(=O)c4ccc(O)c(CC=C(C)C)c4)c(=O)oc3c2C)OC1(C)C ?
Reply | 105

Ask | Now the compound Nc1ccn(C2OC(CO)C(O)C2(F)F)c(=O)n1 (stereo unspecified) + Cc1cccc(N(C)C(=O)C2C(O)CCN2c2nc(C)cc(C(F)(F)F)c2C#N)c1
Reply | 39.8

Ask | Then what about the compound COc1ccc([C@@H](O)c2cc(-c3ncnc4cc(N5CCOCC5)ccc34)c(F)cc2Cl)nn1 + Nc1ccc(C#CCN(C(=O)Cc2ncc(C(F)(F)F)cc2C(F)(F)F)c2ccc(F)cc2)nn1 ?
Reply | 78

====

Tested on: 439559-082-T-J2-PDC spheroid viability
Test name: Anticancer human tumor 439559-082-T-J2-PDC cell line growth inhibition [POLQ];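 note: spheroids exposed to compounds for seven days before readout; 100% = DMSO vehicle control viability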
Measurement context: second compound 0.1 µM; first compound 0.316 µM; stronger effect = lower value; spheroids with HUVEC and MSC
Record form. Attribute: viability, T/C. Fill in for each entry.
Numbers only here, please. The scale is %.

Ask | Endpoint output: viability, T/C of CC(C)n1c(=O)n(C)c2cnc3cc(F)c(-c4ccc(OCCCN5CCCCC5)nc4)cc3c21 + COC1C(OC(N)=O)C(O)C(Oc2ccc3c(O)c(NC(=O)c4ccc(O)c(CC=C(C)C)c4)c(=O)oc3c2C)OC1(C)C . Value?
Reply | 110

Ask | Now give it for COc1ccc([C@@H](O)c2cc(-c3ncnc4cc(N5CCOCC5)ccc34)c(F)cc2Cl)nn1 + COC1C(OC(N)=O)C(O)C(Oc2ccc3c(O)c(NC(=O)c4ccc(O)c(CC=C(C)C)c4)c(=O)oc3c2C)OC1(C)C too.
Reply | 93.5

Ask | Try this molecule too: C=CC(=O)N1CCN(c2nc(=O)n(-c3c(C)ccnc3C(C)C)c3nc(-c4c(O)cccc4F)c(F)cc23)C(C)C1 (stereo not drawn) + Cc1cccc(N(C)C(=O)C2C(O)CCN2c2nc(C)cc(C(F)(F)F)c2C#N)c1
Reply | 97

====

Test system: 439559-082-T-J2-PDC spheroid viability
Test name: Anticancer human tumor 439559-082-T-J2-PDC cell line growth inhibition [POLQ];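 note: spheroids exposed to compounds for seven days before readout; 100% = DMSO vehicle control viability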
Measurement context: second compound 1 µM; first compound 1 µM; stronger effect = lower value; spheroids with HUVEC and MSC
// classify: if (viability, T/C < 70%) True else False

Ask | # strict comparison: is reported viability, T/C < 70%? input = CC1COCCN1c1cc(C2(S(C)(=N)=O)CC2)nc(-c2ccnc3[nH]ccc23)n1 (stereo unspecified) + Cc1cccc(N(C)C(=O)C2C(O)CCN2c2nc(C)cc(C(F)(F)F)c2C#N)c1
Reply | False

Ask | Next: C#Cc1c(F)ccc2cc(O)cc(-c3ncc4c(N5CC6CCC(C5)N6)nc(OCC56CCCN5CC(F)C6)nc4c3F)c12 (stereo unspecified) + Cc1cccc(N(C)C(=O)C2C(O)CCN2c2nc(C)cc(C(F)(F)F)c2C#N)c1
Reply | True

Ask | Then this compound: COc1ccc([C@@H](O)c2cc(-c3ncnc4cc(N5CCOCC5)ccc34)c(F)cc2Cl)nn1 + Cc1cccc(N(C)C(=O)C2C(O)CCN2c2nc(C)cc(C(F)(F)F)c2C#N)c1
Reply | False

Ask | Now this one: COc1cc(C2c3cc4c(cc3C(OC3OC5COC(C)OC5C(O)C3O)C3COC(=O)C23)OCO4)cc(OC)c1O (stereo unspecified) + Cc1cccc(N(C)C(=O)C2C(O)CCN2c2nc(C)cc(C(F)(F)F)c2C#N)c1
Reply | False

Ask | Please do the same for CC1COCCN1c1cc(-c2ccnn2C)c2ccnc(-c3ccn[nH]3)c2n1 (stereo unspecified) + Cc1cccc(N(C)C(=O)C2C(O)CCN2c2nc(C)cc(C(F)(F)F)c2C#N)c1 as well.
Reply | True

Ask | Continue with Nc1ccn(C2OC(CO)C(O)C2(F)F)c(=O)n1 (stereo unspecified) + Cc1cccc(N(C)C(=O)C2C(O)CCN2c2nc(C)cc(C(F)(F)F)c2C#N)c1
Reply | True

====

Test system: 439559-082-T-J2-PDC spheroid viability
Test name: Anticancer human tumor 439559-082-T-J2-PDC cell line growth inhibition [POLQ];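 note: spheroids exposed to compounds for seven days before readout; 100% = DMSO vehicle control viability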
Measurement context: second compound 0.0316 µM; first compound 1 µM; stronger effect = lower value; spheroids with HUVEC and MSC
Metric: viability, T/C (%)
# output: bare number, implied unit %

Ask | So what's the measured viability, T/C for this one? COc1ccc([C@@H](O)c2cc(-c3ncnc4cc(N5CCOCC5)ccc34)c(F)cc2Cl)nn1 + Cc1cccc(N(C)C(=O)C2C(O)CCN2c2nc(C)cc(C(F)(F)F)c2C#N)c1
Reply | 94.9

Ask | Subsequent entry: O=C(c1cc(Cc2n[nH]c(=O)c3ccccc23)ccc1F)N1CCN(C(=O)C2CC2)CC1 + Nc1ccc(C#CCN(C(=O)Cc2ncc(C(F)(F)F)cc2C(F)(F)F)c2ccc(F)cc2)nn1
Reply | 101

Ask | Now the same for O=C(c1cc(Cc2n[nH]c(=O)c3ccccc23)ccc1F)N1CCN(C(=O)C2CC2)CC1 + COC1C(OC(N)=O)C(O)C(Oc2ccc3c(O)c(NC(=O)c4ccc(O)c(CC=C(C)C)c4)c(=O)oc3c2C)OC1(C)C
Reply | 100
